- Target Of Assay: Growth/differentiation factor 8 (Homo sapiens)
- Procedure Text: Inhibition of myostatin (unknown origin) expressed in HEK293 cells at 10 uM incubated for 4 hrs by dual luciferase reporter gene assay
- Assay type: cell-based
Active and inactive are the calls of the source. No cut-off for these calls is given here. Residues, ends and D or L forms follow the SMILES beside them.
Possible outcomes: active, inactive

| Molecule | Category Label |
| --- | --- |
| CC[C@H](C)[C@H](NC(=O)[C@H](CCSC)NC(=O)[C@H](Cc1c[nH]c2ccccc12)NC(=O)[C@H](CCCCN)NC(=O)[C@H](Cc1ccccc1)NC(=O)[C@H](CC(C)C)NC(=O)[C@@H](NC(=O)[C@H](C)NC(=O)[C@H](CC(=O)O)NC(=O)[C@H](CC(N)=O)NC(=O)[C@@H](N)C(C)C)[C@@H](C)O)C(=O)N[C@@H](Cc1ccccc1)C(=O)N[C@@H](CC(N)=O)C(=O)NCC(N)=O (H-VNDATLFKWMIFNG-NH2) | active |
| CC[C@H](C)[C@H](NC(=O)[C@H](C)NC(=O)[C@H](Cc1c[nH]c2ccccc12)NC(=O)[C@H](CCCCN)NC(=O)[C@H](Cc1ccccc1)NC(=O)[C@H](CC(C)C)NC(=O)[C@@H](NC(=O)[C@H](CC(N)=O)NC(=O)[C@H](CC(=O)O)NC(=O)[C@H](CC(N)=O)NC(=O)[C@@H](N)C(C)C)[C@@H](C)O)C(=O)N[C@@H](Cc1ccccc1)C(=O)N[C@@H](CC(N)=O)C(=O)NCC(N)=O (H-VNDNTLFKWAIFNG-NH2) | inactive |
